Reference for the values: PubChem BioAssay AID1963981

- System: 354836-022-R-J1-PDC multicell spheroid viability
- method: Anticancer human tumor 354836-022-R-J1-PDC patient-derived head and neck squamous cell carcinoma cell line growth inhibition [PI3K]
- particulars: second compound 0.316 µM; first compound 0.1 µM; stronger effect = lower value
Form field: viability, T/C (one value per entry).
Respond numerically; units are % and should not be typed.

Consider the worked cases shown below.
| molecule | measurement unit | viability, T/C |
| --- | --- | --- |
| CC1(C)CCC(Nc2ncc(C(F)(F)F)c(-c3c[nH]c4c(P(C)(C)=O)c(C#N)ccc34)n2)CN1 (centres undefined) + Cc1nc(NC(=O)N2CCCC2C(N)=O)sc1-c1ccnc(C(C)(C)C(F)(F)F)c1 | % | 20 |
| CC(C)n1nc(-c2ccc3oc(N)nc3c2)c2c(N)ncnc21 + Cc1nc(NC(=O)N2CCCC2C(N)=O)sc1-c1ccnc(C(C)(C)C(F)(F)F)c1 | % | 10.8 |
| C=CC(=O)N1CCN(c2nc(=O)n(-c3c(C)ccnc3C(C)C)c3nc(-c4c(O)cccc4F)c(F)cc23)C(C)C1 (centres undefined) + CC(Nc1ncnc2nc[nH]c12)c1cc2cccc(Cl)c2c(=O)n1-c1ccccc1 | % | 106 |

Shifting focus to the molecule that follows.
Given item Cn1ncc(Cl)c1-c1cc(C(=O)NC(CN)Cc2cccc(F)c2)sc1Cl (centres undefined) + CC(Nc1ncnc2nc[nH]c12)c1cc2cccc(Cl)c2c(=O)n1-c1ccccc1 , the value recorded as its viability, T/C is 52.5

* * *

- Test system: 354836-022-R-J1-PDC multicell spheroid viability
- method: Anticancer human tumor 354836-022-R-J1-PDC cell line growth inhibition [PI3K];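 also: spheroids exposed to agents for seven days before the viability read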
- particulars: second compound 0.316 µM; first compound 0.316 µM; stronger effect = lower value
property name: viability, T/C (%)
Respond numerically; units are % and should not be typed.

Consider the worked cases shown below.
| compound | property name | measurement unit | result number |
| --- | --- | --- | --- |
| CCCS(=O)(=O)Nc1ccc(F)c(C(=O)c2c[nH]c3ncc(-c4ccc(Cl)cc4)cc23)c1F + CC(Nc1ncnc2nc[nH]c12)c1cc2cccc(Cl)c2c(=O)n1-c1ccccc1 | viability, T/C | % | 125 |
| CC(C)NCC(C(=O)N1CCN(c2ncnc3c2C(C)CC3O)CC1)c1ccc(Cl)cc1 (configuration not stated) + Cc1nc(NC(=O)N2CCCC2C(N)=O)sc1-c1ccnc(C(C)(C)C(F)(F)F)c1 | viability, T/C | % | 42 |
| CC1(C)CCC(CN2CCN(c3ccc(C(=O)NS(=O)(=O)c4ccc(NCC5CCOCC5)c([N+](=O)[O-])c4)c(Oc4cnc5[nH]ccc5c4)c3)CC2)=C(c2ccc(Cl)cc2)C1 + COc1c(OCCCN2CCOCC2)ccc2c3n(c(=NC(=O)c4cnc(N)nc4)nc12)CCN3 | viability, T/C | % | 13.7 |
| CC(Cn1ccc(-c2ccc(C#N)c(Cl)c2)n1)NC(=O)c1cc(C(C)O)[nH]n1 (configuration not stated) + COc1c(OCCCN2CCOCC2)ccc2c3n(c(=NC(=O)c4cnc(N)nc4)nc12)CCN3 | viability, T/C | % | 15.1 |
| C=CC(=O)N1CCN(c2nc(=O)n(-c3c(C)ccnc3C(C)C)c3nc(-c4c(O)cccc4F)c(F)cc23)C(C)C1 (configuration not stated) + COc1c(OCCCN2CCOCC2)ccc2c3n(c(=NC(=O)c4cnc(N)nc4)nc12)CCN3 | viability, T/C | % | 16.2 |

Given item CC1(C)CCC(Nc2ncc(C(F)(F)F)c(-c3c[nH]c4c(P(C)(C)=O)c(C#N)ccc34)n2)CN1 (configuration not stated) + CC(Nc1ncnc2nc[nH]c12)c1cc2cccc(Cl)c2c(=O)n1-c1ccccc1 , the value recorded as its viability, T/C is 12.4

Given item CC(C)NCC(C(=O)N1CCN(c2ncnc3c2C(C)CC3O)CC1)c1ccc(Cl)cc1 (configuration not stated) + COc1c(OCCCN2CCOCC2)ccc2c3n(c(=NC(=O)c4cnc(N)nc4)nc12)CCN3 , the value recorded as its viability, T/C is 5.73
